# target-under-test: human TLR7 (Homo sapiens, UniProt Q9NYK1)
# Sequence (Q9NYK1 27-1049): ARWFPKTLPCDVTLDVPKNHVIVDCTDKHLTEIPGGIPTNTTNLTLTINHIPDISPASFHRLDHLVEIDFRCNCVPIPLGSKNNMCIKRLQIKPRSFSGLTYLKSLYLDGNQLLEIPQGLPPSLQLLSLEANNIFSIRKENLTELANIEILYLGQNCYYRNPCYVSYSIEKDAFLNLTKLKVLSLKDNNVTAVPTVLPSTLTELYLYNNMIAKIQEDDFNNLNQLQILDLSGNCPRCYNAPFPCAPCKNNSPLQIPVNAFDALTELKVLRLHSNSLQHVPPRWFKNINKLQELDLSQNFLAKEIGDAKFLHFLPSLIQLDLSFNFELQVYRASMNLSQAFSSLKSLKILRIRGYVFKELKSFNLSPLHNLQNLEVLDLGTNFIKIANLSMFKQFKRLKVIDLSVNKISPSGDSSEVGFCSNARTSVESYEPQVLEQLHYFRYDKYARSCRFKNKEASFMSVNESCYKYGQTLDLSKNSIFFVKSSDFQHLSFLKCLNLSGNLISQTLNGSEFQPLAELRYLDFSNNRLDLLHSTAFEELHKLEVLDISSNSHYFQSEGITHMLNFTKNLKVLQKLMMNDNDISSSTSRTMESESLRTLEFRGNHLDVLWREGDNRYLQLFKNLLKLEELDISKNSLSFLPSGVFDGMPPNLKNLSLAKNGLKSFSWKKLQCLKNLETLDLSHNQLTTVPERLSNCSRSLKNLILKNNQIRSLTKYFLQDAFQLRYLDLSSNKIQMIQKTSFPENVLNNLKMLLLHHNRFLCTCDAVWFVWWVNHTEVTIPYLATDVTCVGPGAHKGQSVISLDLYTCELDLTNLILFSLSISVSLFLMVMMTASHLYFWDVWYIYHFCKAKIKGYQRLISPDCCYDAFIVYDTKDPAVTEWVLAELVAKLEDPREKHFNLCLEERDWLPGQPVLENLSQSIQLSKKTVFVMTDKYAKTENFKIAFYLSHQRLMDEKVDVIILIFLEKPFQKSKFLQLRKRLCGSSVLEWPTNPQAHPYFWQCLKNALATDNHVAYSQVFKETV
# protocol-notes: HEK293 NFKB reporter assay, human TLR7
# condition-context: HEK293 NFKB reporter cells expressing human TLR7; read-out: HEK293 hTLR7 EC50
measurement-label: pEC50
In plain terms, pEC50 is the concentration in mol/L turned into minus its base-10 logarithm.

# return recorded pEC50 for input CCCN(C[C@H]1CC[C@@H](CNC(=O)OC(C)(C)C)CC1)C(=O)C1=Cc2sccc2N=C(N)C1 [TAZ-119]
5.54

# return recorded pEC50 for input CCCN(OCC)C(=O)C1=Cc2sc(C#CC3CNC3)cc2N=C(N)C1 [TAZ-193]
5.47

# return recorded pEC50 for input CCCN(OCC)C(=O)C1=Cc2sc(CN3CCCNCC3)cc2N=C(N)C1 [TAZ-225]
5.59

# return recorded pEC50 for input CCCN(Cc1ccc(CN(C)C)cc1C(F)(F)F)C(=O)C1=Cc2sc(CCCCCN)cc2N=C(N)C1 [TAZ-144]
5.89

# return recorded pEC50 for input CCCN(CCC)C(=O)C1=Cc2sc(CC(=O)OC)cc2N=C(N)C1 [TAZ-134]
5.33

# return recorded pEC50 for input CCCN(CCCNC(=O)OC1CCC1)C(=O)C1=Cc2sc(CCC3CNC3)cc2N=C(N)C1 [TAZ-197]
5.74

# return recorded pEC50 for input CCCN(CCCNC(=O)OC1CCC1)C(=O)C1=Cc2sc(-c3cn[nH]c3)cc2N=C(N)C1 [TAZ-172]
6.82

# return recorded pEC50 for input CCCN(CCCNC(=O)OC1CCC1)C(=O)C1=Cc2sc(CNC(=O)Cc3ccccc3)cc2N=C(N)C1 [TAZ-204]
5.57

# return recorded pEC50 for input CCCN(OCC)C(=O)C1=Cc2sc(CN3CCC[C@@H](C(=O)OC)C3)cc2N=C(N)C1 [TAZ-223]
5.42

# return recorded pEC50 for input CCCN(CCCNC(=O)OC1CCC1)C(=O)C1=Cc2sc(CN3CCC(Nc4ccc(CN)cc4)C3)cc2N=C(N)C1 (stereo not drawn) [TAZ-190]
5.52

# return recorded pEC50 for input CCCN(CCCNC(=O)OC1CCC1)C(=O)C1=Cc2sc(CCC3CCNCC3)cc2N=C(N)C1 [TAZ-166]
6.10

# return recorded pEC50 for input CCCN(OCC)C(=O)C1=Cc2sc(CC3CNC3)cc2N=C(N)C1 [TAZ-183]
5.45

# return recorded pEC50 for input CCCN(OCC)C(=O)C1=Cc2sc(CCC3(O)CN(C(=O)OC(C)(C)C)C3)cc2N=C(N)C1 [TAZ-199]
7.51

# return recorded pEC50 for input CCCN(CCC)C(=O)C1=Cc2sc(CNC(=O)CCNC(=O)OC(C)(C)C)cc2N=C(N)C1 [TAZ-91]
5.37

# return recorded pEC50 for input CCCN(CC1CCC1)C(=O)C1=Cc2sc(CCCCCN)cc2N=C(N)C1 [TAZ-126]
6.02

# return recorded pEC50 for input CCCN(CCC(F)(F)F)C(=O)C1=Cc2sccc2N=C(N)C1 [TAZ-64]
5.30

# return recorded pEC50 for input CCCN(CC#CCNC(=O)OC(C)(C)C)C(=O)C1=Cc2sc(Br)cc2N=C(N)C1 [TAZ-10]
5.11

# return recorded pEC50 for input CCON(CCC(F)(F)F)C(=O)C1=Cc2sccc2N=C(N)C1 [TAZ-74]
5.39

# return recorded pEC50 for input CCCN(CCCNC(=O)OC1CCC1)C(=O)C1=Cc2sc(CCC3CCN(C(=O)OC(C)(C)C)CC3)cc2N=C(N)C1 [TAZ-167]
5.50

# return recorded pEC50 for input CN(C)Cc1ccc(CN(CCC(F)(F)F)C(=O)C2=Cc3sc(CCCCCNC(=O)OC(C)(C)C)cc3N=C(N)C2)cc1 [TAZ-116]
5.79

# return recorded pEC50 for input CCCN(OCC)C(=O)C1=Cc2sc(CCCCCNC(=O)OC(C)(C)C)cc2N=C(N)C1 [TAZ-75]
5.29

# return recorded pEC50 for input CCCN(OCC)C(=O)C1=Cc2sc(CCC3(O)CNC3)cc2N=C(N)C1 [TAZ-200]
5.54

# return recorded pEC50 for input CCCN(Cc1ccc(CN)c(C(F)(F)F)c1)C(=O)C1=Cc2sccc2N=C(N)C1
6.04

# return recorded pEC50 for input CCCN(CCC)C(=O)C1=Cc2sc(CNC(=O)CCN)cc2N=C(N)C1 [TAZ-90]
6.04

# return recorded pEC50 for input CCCN(OCC)C(=O)C1=Cc2sc(CN3CCC4(CCNC4)CC3)cc2N=C(N)C1 [TAZ-240]
5.37

# return recorded pEC50 for input CCCN(Cc1cnc(CNC(=O)OC(C)(C)C)cn1)C(=O)C1=Cc2sccc2N=C(N)C1 [TAZ-57]
5.98

# return recorded pEC50 for input CCCN(OCC(F)(F)F)C(=O)C1=Cc2sccc2N=C(N)C1 [TAZ-103]
5.42

# return recorded pEC50 for input CCCN(CCCNC(=O)CC(C)(C)C)C(=O)C1=Cc2sc(CN3CCNCC3)cc2N=C(N)C1 [TAZ-139]
5.38

====

# target-under-test: human TLR8 (Homo sapiens)
# Construct: host or cells: HEK293 reporter cells
# Sequence (Q9NR97 27-1041): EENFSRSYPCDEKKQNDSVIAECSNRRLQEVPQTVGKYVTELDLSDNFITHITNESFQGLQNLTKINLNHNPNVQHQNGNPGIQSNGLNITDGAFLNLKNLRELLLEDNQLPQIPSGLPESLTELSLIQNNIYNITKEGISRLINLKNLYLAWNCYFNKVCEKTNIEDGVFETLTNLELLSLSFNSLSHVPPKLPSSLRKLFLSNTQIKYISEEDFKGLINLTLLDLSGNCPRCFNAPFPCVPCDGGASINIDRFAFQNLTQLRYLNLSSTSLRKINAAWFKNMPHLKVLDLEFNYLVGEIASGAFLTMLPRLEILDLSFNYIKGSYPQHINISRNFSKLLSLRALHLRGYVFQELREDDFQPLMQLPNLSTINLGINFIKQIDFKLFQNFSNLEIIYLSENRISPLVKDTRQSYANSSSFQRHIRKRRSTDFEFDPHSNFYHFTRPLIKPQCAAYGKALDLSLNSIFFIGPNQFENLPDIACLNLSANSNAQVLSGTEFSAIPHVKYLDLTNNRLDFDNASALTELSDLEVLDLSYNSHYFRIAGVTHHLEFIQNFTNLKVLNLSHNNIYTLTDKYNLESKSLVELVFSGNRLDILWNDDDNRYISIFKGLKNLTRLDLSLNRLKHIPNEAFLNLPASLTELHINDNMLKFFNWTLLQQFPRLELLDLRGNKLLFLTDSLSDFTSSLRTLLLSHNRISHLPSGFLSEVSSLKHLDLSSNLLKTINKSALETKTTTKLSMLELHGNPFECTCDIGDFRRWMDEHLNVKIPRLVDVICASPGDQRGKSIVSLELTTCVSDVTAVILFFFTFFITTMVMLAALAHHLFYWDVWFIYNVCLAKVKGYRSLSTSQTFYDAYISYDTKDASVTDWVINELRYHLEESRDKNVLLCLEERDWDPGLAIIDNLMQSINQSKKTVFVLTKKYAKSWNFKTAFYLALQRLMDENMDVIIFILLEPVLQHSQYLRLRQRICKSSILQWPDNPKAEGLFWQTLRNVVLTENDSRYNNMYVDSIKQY
# protocol-notes: HEK293 NFKB reporter assay, human TLR8
# Assay type: cell-based
# condition-context: HEK293 NFKB reporter cells expressing human TLR8; read-out: HEK293 hTLR8 EC50
measurement-label: EC50

Give EC50 for this entry on human TLR8 (Homo sapiens): CCCN(CCC)C(=O)C1=Cc2sc(CO)cc2N=C(N)C1
3620 nM

Give EC50 for this entry on human TLR8 (Homo sapiens): CCCN(OCC)C(=O)C1=Cc2sc(CN3CC4(C3)CN(C(=O)OC(C)(C)C)C4)cc2N=C(N)C1
8510 nM

Give EC50 for this entry on human TLR8 (Homo sapiens): CCCN(OCC)C(=O)C1=Cc2sc(CN3CCNC(=O)C3)cc2N=C(N)C1
2720 nM

Give EC50 for this entry on human TLR8 (Homo sapiens): CCCN(OCC)C(=O)C1=Cc2sc(CC3CCNC3)cc2N=C(N)C1 (centres unmarked)
423 nM

Give EC50 for this entry on human TLR8 (Homo sapiens): CCCN(CCC)C(=O)C1=Cc2sccc2N=C(N)C1
2390 nM

Give EC50 for this entry on human TLR8 (Homo sapiens): CCCN(CCCNC(=O)OC1CCC1)C(=O)C1=Cc2sc(CN3CCC(Nc4ccc(CN)cc4)C3)cc2N=C(N)C1 (centres unmarked)
4800 nM

Give EC50 for this entry on human TLR8 (Homo sapiens): CCCN(CC1CCC1)C(=O)C1=Cc2sc(CCCCCN)cc2N=C(N)C1
633 nM

Give EC50 for this entry on human TLR8 (Homo sapiens): CCCN(CCCNC(=O)OC1CCC1)C(=O)C1=Cc2sc(CC3CN(C(=O)OC(C)(C)C)C3)cc2N=C(N)C1
840 nM

Give EC50 for this entry on human TLR8 (Homo sapiens): CCCN(CCC(F)(F)F)C(=O)C1=Cc2sccc2N=C(N)C1
2740 nM

Give EC50 for this entry on human TLR8 (Homo sapiens): CCCN(Cc1ccc(CNC(=O)CCOC)cc1)C(=O)C1=Cc2sccc2N=C(N)C1
1580 nM

Give EC50 for this entry on human TLR8 (Homo sapiens): CCCN(OCc1ccc(OC)cc1)C(=O)C1=Cc2sccc2N=C(N)C1
203 nM

Give EC50 for this entry on human TLR8 (Homo sapiens): CCCN(OCC)C(=O)C1=Cc2sc(C#CC3CN(C(=O)OC(C)(C)C)C3)cc2N=C(N)C1
964 nM

Give EC50 for this entry on human TLR8 (Homo sapiens): CCCN(CCC)C(=O)C1=Cc2sc(CN3CCN(C)CC3)cc2N=C(N)C1
848 nM

Give EC50 for this entry on human TLR8 (Homo sapiens): CCCN(OCC)C(=O)C1=Cc2sc(CN3CCCNCC3)cc2N=C(N)C1
1210 nM

Give EC50 for this entry on human TLR8 (Homo sapiens): CCCN(OCC)C(=O)C1=Cc2sc(CCC3CNC3)cc2N=C(N)C1
953 nM

Give EC50 for this entry on human TLR8 (Homo sapiens): CCCN(C[C@H]1C[C@@H](CNC(=O)OC(C)(C)C)C1)C(=O)C1=Cc2sccc2N=C(N)C1
> 9000 nM

Give EC50 for this entry on human TLR8 (Homo sapiens): CCCN(OCC)C(=O)C1=Cc2sc(CN3CCC[C@@H](C(=O)OC)C3)cc2N=C(N)C1
3140 nM

Give EC50 for this entry on human TLR8 (Homo sapiens): CCCN(CCC)C(=O)C1=Cc2sc(CN)cc2N=C(N)C1
1370 nM

Give EC50 for this entry on human TLR8 (Homo sapiens): CCCN(OCC)C(=O)C1=Cc2sc(CN3CC4CCC(C3)N4C(=O)OC(C)(C)C)cc2N=C(N)C1
3060 nM

Give EC50 for this entry on human TLR8 (Homo sapiens): CCCN(CC#CCNC(=O)OC(C)(C)C)C(=O)C1=Cc2sccc2N=C(N)C1
6110 nM

Give EC50 for this entry on human TLR8 (Homo sapiens): CCCN(CCC)C(=O)C1=Cc2sc(CCCCN)cc2N=C(N)C1
3750 nM

Give EC50 for this entry on human TLR8 (Homo sapiens): CCCN(Cc1ccc(CN)nc1)C(=O)C1=Cc2sccc2N=C(N)C1
517 nM

Give EC50 for this entry on human TLR8 (Homo sapiens): CCCN(CCCNC(=O)OC1CCC1)C(=O)C1=Cc2sc(C#CC3CNC3)cc2N=C(N)C1
3480 nM

Give EC50 for this entry on human TLR8 (Homo sapiens): CCCN(OCC)C(=O)C1=Cc2sc(CN3CC(C(=O)OC(C)(C)C)C3)cc2N=C(N)C1
2540 nM

Give EC50 for this entry on human TLR8 (Homo sapiens): NCc1ccc(CN(CCC(F)(F)F)C(=O)C2=Cc3sccc3N=C(N)C2)cc1
59 nM

Give EC50 for this entry on human TLR8 (Homo sapiens): CCCN(OCC)C(=O)C1=Cc2sc(CC3CCN(C(=O)OC(C)(C)C)CC3)cc2N=C(N)C1
2540 nM

Give EC50 for this entry on human TLR8 (Homo sapiens): CCCN(OCC)C(=O)C1=Cc2sc(CCCCCNC(=O)OC(C)(C)C)cc2N=C(N)C1
2030 nM

Give EC50 for this entry on human TLR8 (Homo sapiens): CCCN(OCC)C(=O)C1=Cc2sc(C#CC3(O)CN(C(=O)OC(C)(C)C)C3)cc2N=C(N)C1
7800 nM

Give EC50 for this entry on human TLR8 (Homo sapiens): CCCN(OCC)C(=O)C1=Cc2sc(CC3CCNCC3)cc2N=C(N)C1
124 nM

Give EC50 for this entry on human TLR8 (Homo sapiens): CCCN(OCC)C(=O)C1=Cc2sc(CN3CC(CNC(=O)OC(C)(C)C)C3)cc2N=C(N)C1
2940 nM

Give EC50 for this entry on human TLR8 (Homo sapiens): CCCN(Cc1ccccc1)C(=O)C1=Cc2sccc2N=C(N)C1
> 9000 nM

Give EC50 for this entry on human TLR8 (Homo sapiens): CCCN(OCC)C(=O)C1=Cc2sc(CCC3CN(C(=O)OC(C)(C)C)C3)cc2N=C(N)C1
631 nM

Give EC50 for this entry on human TLR8 (Homo sapiens): CCCN(CCCNC(=O)OC1CCC1)C(=O)C1=Cc2sc(CNC(=O)Cc3ccccc3)cc2N=C(N)C1
2550 nM

Give EC50 for this entry on human TLR8 (Homo sapiens): CCCN(CCC)C(=O)C1=Cc2sc(COCCNC(=O)OC(C)(C)C)cc2N=C(N)C1
3790 nM

Give EC50 for this entry on human TLR8 (Homo sapiens): CCON(C(=O)C1=Cc2sc(CC3CN(C(=O)OC(C)(C)C)C3)cc2N=C(N)C1)C(C)CC (centres unmarked)
8270 nM
